Reference source: patent US20260297542A1

Target: His-TEV-AtPP01 ΔcTP L479M (SEQ ID NO: 371) (Arabidopsis thaliana, UniProt P55826, L479M)
Construct: with cTPs removed; made in house; host or cells: E. coli BL21 (DE3), His GraviTrap, partially purified
Experiment: PPO fluorescence IC50 assay, partially purified enzyme
Assay type: biochemical
Can you tell me pIC50 for the items I'm about to list?
Reminder that pIC50 is minus the log10 of a molar concentration.

q: Give pIC50 for CCOC(=O)COc1ncccc1Oc1cc(-n2c(=O)cc(C(F)(F)F)n(C)c2=O)c(F)cc1Cl [Herbicide A, epyrifenacil]
a: 9.10

q: Give pIC50 for CCOC(=O)COc1cc(-c2nn(C)c(OC(F)F)c2Cl)c(F)cc1Cl [Pyraflufen-ethyl, pyraflufen-ethyl]
a: 9.15

q: Give pIC50 for C#CCN1C(=O)C(F)(F)Oc2cc(F)c(-n3c(=O)n(C)c(=S)n(C)c3=O)cc21 [Herbicide B, trifludimoxazin]
a: 9.10

q: Give pIC50 for C#CCN(C)c1c(C#N)cnn1-c1nn2c(c1Cl)CCCC2 [Pyraclonil]
a: 8.64

q: Give pIC50 for C#CCN1C(=O)COc2cc(F)c(N3C(=O)C4=C(CCCC4)C3=O)cc21 [Flumioxazin, flumioxazin]
a: 9.00

----------
Can you tell me inhibition at 10 ppm for the items I'm about to list?
Target: AtPPO1 V365L G404A L479N (SEQ ID NO.136) (Arabidopsis thaliana, UniProt P55826, G404A/L479N/V365L)
Construct: made in house; host or cells: E. coli BL21 (DE3) hemG, crude extract
Sequence (P55826 35-537 V365L/G404A/L479N): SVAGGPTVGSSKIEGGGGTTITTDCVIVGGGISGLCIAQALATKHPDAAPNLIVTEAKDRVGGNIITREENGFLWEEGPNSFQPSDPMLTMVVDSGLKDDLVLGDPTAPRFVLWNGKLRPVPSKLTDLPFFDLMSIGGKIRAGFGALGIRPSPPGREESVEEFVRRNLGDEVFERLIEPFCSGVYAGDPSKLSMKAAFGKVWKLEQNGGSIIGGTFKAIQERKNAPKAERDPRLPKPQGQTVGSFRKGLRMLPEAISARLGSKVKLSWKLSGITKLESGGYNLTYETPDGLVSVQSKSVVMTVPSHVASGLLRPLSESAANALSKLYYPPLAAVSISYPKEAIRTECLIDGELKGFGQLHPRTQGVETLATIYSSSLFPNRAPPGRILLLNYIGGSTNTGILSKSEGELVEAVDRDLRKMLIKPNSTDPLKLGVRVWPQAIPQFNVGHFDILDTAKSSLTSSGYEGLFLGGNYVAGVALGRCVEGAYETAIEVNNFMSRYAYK
Assay: fluorescent Protoporphyrinogen Oxidase assay, crude extract
Type: biochemical
Conditions: read-out: percentage inhibition
Expressed in %, but write only the number.

q: Give inhibition at 10 ppm for CCOC(=O)C1(C)CC(c2cc(-n3c(=O)cc(C(F)(F)F)n(C)c3=O)c(F)cc2Cl)=NO1 (centres unmarked) [Herbicide C]
a: 99

q: Give inhibition at 10 ppm for C#CCN1C(=O)C(F)(F)Oc2cc(F)c(-n3c(=O)n(C)c(=S)n(C)c3=O)cc21 [Herbicide B, trifludimoxazin]
a: 100

q: Give inhibition at 10 ppm for CCOC(=O)COc1ncccc1Oc1cc(-n2c(=O)cc(C(F)(F)F)n(C)c2=O)c(F)cc1Cl [Herbicide A, epyrifenacil]
a: 100

q: Give inhibition at 10 ppm for CCOC(=O)[C@]1(C)CC(c2cc(-n3c(=O)n(C)c(=S)n(C)c3=O)c(F)cc2Cl)=NO1 [Herbicide D]
a: 99

q: Give inhibition at 10 ppm for CC(C)N(C)S(=O)(=O)NC(=O)c1cc(-n2c(=O)cc(C(F)(F)F)n(C)c2=O)c(F)cc1Cl [Herbicide E, saflufenacil]
a: 86

----------
Molecular target: His-TEV-AtPP01 ΔcTP L479N (SEQ ID NO: 372) (Arabidopsis thaliana, UniProt P55826, L479N)
Construct: with cTPs removed; made in house; host or cells: E. coli BL21 (DE3), His GraviTrap, partially purified
Sequence (P55826 with tags, fused parts or gaps L479N): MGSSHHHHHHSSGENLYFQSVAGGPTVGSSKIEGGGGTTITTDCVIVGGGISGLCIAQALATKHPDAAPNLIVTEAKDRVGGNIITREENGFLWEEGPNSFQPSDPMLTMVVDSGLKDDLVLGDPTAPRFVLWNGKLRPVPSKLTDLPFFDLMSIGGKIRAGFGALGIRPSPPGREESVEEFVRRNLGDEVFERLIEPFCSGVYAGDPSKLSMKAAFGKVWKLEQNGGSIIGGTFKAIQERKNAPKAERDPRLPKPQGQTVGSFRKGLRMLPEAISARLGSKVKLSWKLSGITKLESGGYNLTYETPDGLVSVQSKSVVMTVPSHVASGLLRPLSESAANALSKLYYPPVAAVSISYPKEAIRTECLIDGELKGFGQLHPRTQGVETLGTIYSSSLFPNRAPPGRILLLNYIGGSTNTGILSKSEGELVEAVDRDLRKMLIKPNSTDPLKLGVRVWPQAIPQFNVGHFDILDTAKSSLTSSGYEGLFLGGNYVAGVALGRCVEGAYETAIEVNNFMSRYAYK
Test: PPO fluorescence IC50 assay, partially purified enzyme
Assay type: biochemical
Protocol: A pET24 plasmid containing a DNA sequence encoding variants of AtPPO1 derived from Arabidopsis thaliana with cTPs removed and both a 6×His tag and TEV protease cleavage tag added at the N-terminus, codon-optimised for expression in E. coli, and under control of a T7 promoter, was synthesised by Twist Bioscience. […] Protein concentration was measured and calculated using the absorbance at 280 nm. Extracts were diluted 1 in 4 and 10 uL was analysed by SDS PAGE. […]
QUANTITY_NAME: pIC50
Reminder that pIC50 is minus the log10 of a molar concentration.

q: Give pIC50 for CCOC(=O)[C@]1(C)CC(c2cc(-n3c(=O)n(C)c(=S)n(C)c3=O)c(F)cc2Cl)=NO1 [Herbicide D]
a: 9.10

q: Give pIC50 for `C#CCOc1cc(-n2nc3n(c2=O)CCCC3)c(Cl)cc1Cl`
a: 9.10

q: Give pIC50 for `C=CCOC(=O)C(C)(C)OC(=O)c1cc(-n2c(=O)cc(C(F)(F)F)n(C)c2=O)ccc1Cl`
a: 9.05

q: Give pIC50 for CCOC(=O)COc1ncccc1Oc1cc(-n2c(=O)cc(C(F)(F)F)n(C)c2=O)c(F)cc1Cl [Herbicide A, epyrifenacil]
a: 9.05

q: Give pIC50 for `C#CCN(C)c1c(C#N)cnn1-c1nn2c(c1Cl)CCCC2`
a: 8.82

q: Give pIC50 for `CC(C)Oc1cc(-n2nc(C(C)(C)C)oc2=O)c(Cl)cc1Cl`
a: 8.21

q: Give pIC50 for `CS(=O)(=O)NC(=O)c1cc(Oc2ccc(C(F)(F)F)cc2Cl)ccc1[N+](=O)[O-]`
a: 8.85

q: Give pIC50 for C#CCN1C(=O)C(F)(F)Oc2cc(F)c(-n3c(=O)n(C)c(=S)n(C)c3=O)cc21 [Herbicide B, trifludimoxazin]
a: 9.00

----------
Target: His-TEV-AtPP01 ΔcTP L479M (SEQ ID NO: 371) (Arabidopsis thaliana, UniProt P55826, L479M)
Construct: with cTPs removed; made in house; host or cells: E. coli BL21 (DE3), His GraviTrap, partially purified
Assay: PPO fluorescence IC50 assay, partially purified enzyme
Assay type: biochemical
Conditions: role: inhibitor; 1 uM protoporphyrinogen IX; <1.0 is below detection limit of assay
QUANTITY_NAME: IC50

q: Fill: IC50 (His-TEV-AtPP01 ΔcTP L479M (SEQ ID NO: 371) (Arabidopsis thaliana, UniProt P55826, L479M)) for this compound COC(=O)C(C)ON=Cc1cc(-n2c(=O)cc(C(F)(F)F)n(C)c2=O)c(F)cc1Cl (stereo not shown)
a: 0.7 nM

----------
Target: AtPPO1 S305L Y426V (SEQ ID NO.125) (Arabidopsis thaliana, UniProt P55826, S305L/Y426V)
Construct: made in house; host or cells: E. coli BL21 (DE3) hemG, crude extract
Assay: fluorescent Protoporphyrinogen Oxidase assay, crude extract
Assay type: biochemical
Settings: read-out: percentage inhibition
Class rule met: inhibition at 10 ppm at least 60%. Class rule not met: inhibition at 10 ppm below 60%.

q: Could you tell me if the measured inhibition at 10 ppm of C#CCN1C(=O)C(F)(F)Oc2cc(F)c(-n3c(=O)n(C)c(=S)n(C)c3=O)cc21 [Herbicide B, trifludimoxazin] reaches 60% or more?
a: rule met

q: Could you tell me if the measured inhibition at 10 ppm of CCOC(=O)C1(C)CC(c2cc(-n3c(=O)cc(C(F)(F)F)n(C)c3=O)c(F)cc2Cl)=NO1 (centres unmarked) [Herbicide C] reaches 60% or more?
a: rule met

q: Could you tell me if the measured inhibition at 10 ppm of CCOC(=O)[C@]1(C)CC(c2cc(-n3c(=O)n(C)c(=S)n(C)c3=O)c(F)cc2Cl)=NO1 [Herbicide D] reaches 60% or more?
a: rule not met

q: Could you tell me if the measured inhibition at 10 ppm of CC(C)N(C)S(=O)(=O)NC(=O)c1cc(-n2c(=O)cc(C(F)(F)F)n(C)c2=O)c(F)cc1Cl [Herbicide E, saflufenacil] reaches 60% or more?
a: rule not met

q: Could you tell me if the measured inhibition at 10 ppm of CCOC(=O)COc1ncccc1Oc1cc(-n2c(=O)cc(C(F)(F)F)n(C)c2=O)c(F)cc1Cl [Herbicide A, epyrifenacil] reaches 60% or more?
a: rule met
